Tested on: IL6 secretion by OCI-LY3 ABC-DLBCL cells
test.name: Human IL6 Mesoscale assay (OCI-LY3)
Format: cell-based
condition.label: Homo sapiens, 24 h
property.label: IC50 (nM)

{"compound.string": "Cn1nc(-c2ncc(NC(=O)c3cnn(-c4cccc5ncccc45)c3C(F)(F)F)cc2C#N)cc1N", "IC50, nM": 141}
{"compound.string": "O=C(Nc1cnc(-c2nnco2)c(Cl)c1)c1cnn(-c2cccc3ncccc23)c1C(F)(F)F", "IC50, nM": 46}
{"compound.string": "Cc1nc2cccc(-n3ncc(C(=O)Nc4cnc(-n5nccn5)c(C#N)c4)c3C(F)(F)F)c2o1", "IC50, nM": 112}

a: Nc1cnn(-c2ncc(NC(=O)c3cnn(-c4cccc5ncccc45)c3C(F)(F)F)cc2Cl)n1
b: O=C(Nc1cnc(-n2nnc3cccnc32)c(Cl)c1)c1cnn(-c2cccc3ncccc23)c1C(F)(F)F
Data request: Sorting by IC50 in descending order, would a or b appear first? // return label of chosen record
Data returned: b
(b: 447 nM, a: 98 nM)

====

assayed.system: full-length MALT1 protein (Strep-MALT1(1-824)-His) (Homo sapiens (Human))
Sequence (Q9UDY8 whole entry): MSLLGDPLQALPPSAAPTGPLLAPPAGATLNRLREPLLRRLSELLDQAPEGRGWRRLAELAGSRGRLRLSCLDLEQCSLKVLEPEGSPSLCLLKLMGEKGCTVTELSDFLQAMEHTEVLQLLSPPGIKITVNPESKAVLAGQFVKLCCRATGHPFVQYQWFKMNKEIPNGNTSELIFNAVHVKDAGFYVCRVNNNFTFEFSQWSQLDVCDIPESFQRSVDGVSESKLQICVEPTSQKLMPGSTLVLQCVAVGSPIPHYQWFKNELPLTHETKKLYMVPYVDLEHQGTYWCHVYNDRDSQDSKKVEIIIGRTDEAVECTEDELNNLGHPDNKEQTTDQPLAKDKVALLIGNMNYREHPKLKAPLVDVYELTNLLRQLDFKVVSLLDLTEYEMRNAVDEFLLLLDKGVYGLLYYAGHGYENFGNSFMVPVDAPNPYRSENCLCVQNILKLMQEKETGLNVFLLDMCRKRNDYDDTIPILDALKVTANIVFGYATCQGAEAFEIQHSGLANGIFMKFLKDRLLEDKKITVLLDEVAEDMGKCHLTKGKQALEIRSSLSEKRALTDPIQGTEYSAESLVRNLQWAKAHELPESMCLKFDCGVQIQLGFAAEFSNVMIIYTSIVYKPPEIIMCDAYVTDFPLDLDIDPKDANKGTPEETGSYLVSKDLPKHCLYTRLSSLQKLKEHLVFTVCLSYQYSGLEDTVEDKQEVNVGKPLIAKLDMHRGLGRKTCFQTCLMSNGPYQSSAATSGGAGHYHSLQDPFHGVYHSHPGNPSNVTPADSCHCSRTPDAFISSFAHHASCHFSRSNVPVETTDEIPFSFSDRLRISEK
property.label: IC50 (µM)

{"molecule": "O=C(Nc1cnc(-n2cccn2)c(Cl)c1)c1cnn(-c2cccc3ccncc23)c1C(F)(F)F", "property.label": "IC50", "obs.value": 4.17}

P: Cc1cc(-n2nccn2)c(Cl)cc1NC(=O)c1cnn(-c2cccc3c(=O)[nH]ccc23)c1C(F)(F)F
Q: O=C(Nc1cnc(-n2nccn2)c(Cl)c1)c1cnn(-c2cnc(C3CCCN3)c3ccccc23)c1C(F)(F)F (stereo not shown)
Data request: Which item exceeds the other in IC50, P or Q ? Returns: label corresponding to the selected item.
Data returned: Q

1: Cn1ncc2cc(NC(=O)c3cnn(-c4cccc5ncccc45)c3C(F)(F)F)cnc21
2: Cc1cc(NC(=O)c2cnn(-c3cccc4ncccc34)c2C(F)(F)F)cnc1-c1nnnn1C
Data request: # min-compare on IC50 between 1 and 2 Provide the label of your selected option as the answer.
Data returned: 2
(2: 0.631 µM, 1: 1.23 µM)

====

Here's what we have: pIC50 numbers for full-length MALT1 protein (Strep-MALT1(1-824)-His) (Homo sapiens (Human), UniProt Q9UDY8).
pIC50: −log10 of the molar value.
property.label: pIC50

// worked examples, pIC50 included
{"compound": "O=C(O)c1cnn(-c2ncc(NC(=O)c3cnn(-c4cccc5ncccc45)c3C(F)(F)F)cc2Cl)n1 [Cpd 109]", "pIC50": 8.00}
{"compound": "O=C(Nc1cnc(-n2nccn2)c(Cl)c1)c1cnn(-c2cccc3nnsc23)c1C(F)(F)F [Cpd 120]", "pIC50": 7.52}

1: O=C(Nc1cnc(-n2nccn2)c(Cl)c1)c1cnn(-c2nccn3cccc23)c1C(F)(F)F [Cpd 147]
2: O=C(Nc1cnc(-n2ncc(CO)n2)c(Cl)c1)c1cnn(-c2cccc3c(=O)[nH]ccc23)c1C(F)(F)F [Cpd 115]
3: N#Cc1ncc(NC(=O)c2cnn(-c3cncc4ccccc34)c2C(F)(F)F)cc1C(F)(F)F [Cpd 49]
Data request: Task field, ranking: reported pIC50, descending order. # the answer lists labels in the order requested
Data returned: 2, 1, 3

====

Test system: IL6 secretion by OCI-LY3 ABC-DLBCL cells
test.name: Human IL6 Mesoscale assay (OCI-LY3)
Assay type: cell-based
condition.label: Homo sapiens, 24 h
property.label: IC50 (µM)

Use the examples below as a reference point.
{"compound": "O=C(Nc1cnc(-n2nccn2)c(Cl)c1)c1cnn(-c2cnc(C3CCCN3)c3ccccc23)c1C(F)(F)F (stereo not shown)", "IC50 / µM": 0.046}
{"compound": "COC(=O)c1cnn(-c2ccc(NC(=O)c3cnn(-c4cccc5ncccc45)c3C(F)(F)F)cc2Cl)n1", "IC50 / µM": 0.257}
{"compound": "Cn1ccc(-c2ncc(NC(=O)c3cnn(-c4cccc5nnsc45)c3C(F)(F)F)cc2Cl)n1", "IC50 / µM": 0.447}

1: O=C(Nc1cnc(-n2nc3cccnc3n2)c(Cl)c1)c1cnn(-c2cccc3ncccc23)c1C(F)(F)F
2: Cc1nc(-n2nccn2)c(Cl)cc1NC(=O)c1cnn(-c2cccn3nccc23)c1C(F)(F)F
Data request: Pick one, 1 or 2 : lowest reported IC50. Please identify the chosen entry by its label.
Data returned: 2

a: N#Cc1cc(NC(=O)c2cnn(-c3cccc4nccn34)c2C(F)(F)F)cnc1-n1nccn1
b: Cc1nc(-n2nccn2)c(Cl)cc1NC(=O)c1cnn(-c2cncc3sccc23)c1C(F)(F)F
Data request: Given the two records a and b , choose the one whose IC50 value is lower. State your choice using its label.
Data returned: b

a: Cc1cc(-n2nccn2)c(Cl)cc1NC(=O)c1cnn(-c2cnc(N)c3ccccc23)c1C(F)(F)F
b: O=C(Nc1cncc(Cl)c1)c1cnn(-c2cccc3c(=O)[nH]ccc23)c1C(F)(F)F
Data request: Which shows the larger IC50 value: a or b ? Kindly give the label for the entry you pick.
Data returned: b

====

Tested on: IL6 secretion by OCI-LY3 ABC-DLBCL cells
test.name: Human IL6 Mesoscale assay (OCI-LY3)
Format: cell-based
condition.label: Homo sapiens, 24 h
property.label: IC50 (nM)

A: N#Cc1cc(NC(=O)c2cnn(-c3ccc(N)c4ccccc34)c2C(F)(F)F)cnc1-n1nccn1 [Cpd 132]
B: Cc1cc(-n2nccn2)c(Cl)cc1NC(=O)c1cnn(-c2cncc3c(F)cccc23)c1C(F)(F)F [Cpd 317]
Data request: Please choose the item with the lower IC50 value from this pair: A and B Mark your selection by writing its label.
Data returned: B
(B: 72 nM, A: 141 nM)

====

Tested on: IL10 secretion by TMD8 ABC-DLBCL cells
test.name: Human IL10 Mesoscale assay (TMD-8)
Format: cell-based
condition.label: Homo sapiens, TMD8; TMD-8 cells, 24 h
property.label: IC50 (µM)

Record excerpt, results attached:
{"compound.string": "O=C(Nc1cnc(-n2nccn2)c(Cl)c1)c1cnn(-c2cnc(F)c3ccccc23)c1C(F)(F)F", "measurement.units": "µM", "IC50": 0.036}
{"compound.string": "O=C(Nc1cnc(-n2nccn2)c(Cl)c1)c1cnn(-c2cccc3ccccc23)c1C(F)(F)F", "measurement.units": "µM", "IC50": 0.028}
{"compound.string": "O=C(Nc1cnc(-c2nccs2)c(Cl)c1)c1cnn(-c2cncc3ccccc23)c1C(F)(F)F", "measurement.units": "µM", "IC50": 1.45}
{"compound.string": "N#Cc1cc(NC(=O)c2cnn(-c3ccnc4ccccc34)c2C(F)(F)F)cnc1-n1nccn1", "measurement.units": "µM", "IC50": 0.126}
{"compound.string": "Cn1ncc2cc(NC(=O)c3cnn(-c4cccc5ncccc45)c3C(F)(F)F)cnc21", "measurement.units": "µM", "IC50": 0.794}

A: CN1C(=O)COc2c(Cl)cc(NC(=O)c3cnn(-c4cccc5ncccc45)c3C(F)(F)F)cc21
B: N#Cc1cc(NC(=O)c2cnn(-c3ncnc4sccc34)c2C(F)(F)F)cnc1-n1nccn1
C: Cc1cc2nccc(-n3ncc(C(=O)Nc4cnc(-n5nccn5)c(C#N)c4)c3C(F)(F)F)c2o1
Data request: Write the entries in order, lowest recorded IC50 first. Returns: the labels arranged in the requested order.
Data returned: B, C, A
(B: 0.017 µM, C: 0.2 µM, A: 0.302 µM)

====

Record set of IC50 for target or system full-length MALT1 protein (Strep-MALT1(1-824)-His) (Homo sapiens (Human)).
property.label: IC50 (nM)

{"compound": "NC(=O)c1ncc(-n2ncc(C(=O)Nc3cnc(-n4nccn4)c(Cl)c3)c2C(F)(F)F)c2ccsc12", "assayed.system": "full-length MALT1 protein (Strep-MALT1(1-824)-His) (Homo sapiens (Human))", "property.label": "IC50", "obs.value": 7}

A: Cn1ccc(-c2ncc(NC(=O)c3cnn(-c4cccc5c(=O)[nH]ccc45)c3C(F)(F)F)cc2Cl)n1
B: N#Cc1cc(NC(=O)c2cnn(-c3cccc4nc(N)ccc34)c2C(F)(F)F)cnc1-n1nccn1
C: O=C(Nc1cncc(Cl)c1)c1cnn(-c2cccc3c(=O)[nH]ccc23)c1C(F)(F)F
D: C[C@@H](O)c1ncc(-n2ncc(C(=O)Nc3cnc(-n4nccn4)c(Cl)c3)c2C(F)(F)F)c2ccccc12 (single isomer, unassigned)
E: Cc1cc(NC(=O)c2cnn(-c3cccc4c(=O)[nH]ccc34)c2C(F)(F)F)ccn1
Data request: Returns the items ordered by IC50, from maximum to minimum. Please reply with the labels ordered as requested. Many thanks.
Data returned: E, B, C, D, A

====

System: IL6 secretion by OCI-LY3 ABC-DLBCL cells
test.name: Human IL6 Mesoscale assay (OCI-LY3)
Format: cell-based
condition.label: Homo sapiens, 24 h
property.label: IC50 (nM)

A selection of reference data follows.
{"compound": "O=C(Nc1cnc(-n2nccn2)c(Cl)c1)c1cnn(-c2nsc3ccccc23)c1C(F)(F)F", "assayed.system": "IL6 secretion by OCI-LY3 ABC-DLBCL cells", "IC50, nM": 186}
{"compound": "CN(C)c1ncc(-n2ncc(C(=O)Nc3cnc(-n4nccn4)c(Cl)c3)c2C(F)(F)F)c2ccccc12", "assayed.system": "IL6 secretion by OCI-LY3 ABC-DLBCL cells", "IC50, nM": 148}

A: Cc1nc2cccc(-n3ncc(C(=O)Nc4cnc(-n5nccn5)c(C#N)c4)c3C(F)(F)F)n2n1
B: O=C(Nc1cnc(-n2nccn2)c(Cl)c1)c1cnn(-c2cnc([C@H]3CCCO3)c3ccccc23)c1C(F)(F)F (single isomer, unassigned)
Data request: Kindly identify the item with the lower IC50 figure among these two: A and B Identify your pick by its label.
Data returned: A
(A: 81 nM, B: 141 nM)

I: O=C(Nc1cnc(-n2nccn2)c(Cl)c1)c1cnn(-c2cccc3ncc(Cl)n23)c1C(F)(F)F
II: O=C(Nc1cnc(-n2nccn2)c(Cl)c1)c1cnn(-c2cncc3sccc23)c1C(F)(F)F
III: O=C(Nc1cnc(-n2nccn2)c(Cl)c1)c1cnn(-c2cnc(C3CC3)c3sccc23)c1C(F)(F)F
IV: COc1cc(NC(=O)c2cnn(-c3cccc4c(=O)[nH]ccc34)c2C(F)(F)F)ccn1
Data request: Put the entries in order of IC50, starting with the largest number. Please respond with the labels ordered as the question requires.
Data returned: I, III, II, IV

I: Cc1nc(-n2nccn2)c(Cl)cc1NC(=O)c1cnn(-c2ccc(C)n3nccc23)c1C(F)(F)F
II: Cc1nc(-n2nccn2)c(Br)cc1NC(=O)c1cnn(-c2cnc(N)c3ccccc23)c1C(F)(F)F
Data request: Please choose the item with the lower IC50 value from this pair: I and II Answer by stating the label of the chosen item.
Data returned: II

I: N#Cc1c(C(=O)Nc2cnc(-n3nccn3)c(Cl)c2)cnn1-c1cccc2ncccc12
II: N#Cc1cc(NC(=O)c2cnn(-c3cccc4ocnc34)c2C(F)(F)F)cnc1-n1nccn1
Data request: Of the two listed items, which has the higher IC50? First: I Second: II Identify your pick by its label.
Data returned: I
(I: 1120 nM, II: 34 nM)
